target-system: Human CB1R (Cannabinoid receptor 1) (Homo sapiens)
Sequence (P21554 whole entry): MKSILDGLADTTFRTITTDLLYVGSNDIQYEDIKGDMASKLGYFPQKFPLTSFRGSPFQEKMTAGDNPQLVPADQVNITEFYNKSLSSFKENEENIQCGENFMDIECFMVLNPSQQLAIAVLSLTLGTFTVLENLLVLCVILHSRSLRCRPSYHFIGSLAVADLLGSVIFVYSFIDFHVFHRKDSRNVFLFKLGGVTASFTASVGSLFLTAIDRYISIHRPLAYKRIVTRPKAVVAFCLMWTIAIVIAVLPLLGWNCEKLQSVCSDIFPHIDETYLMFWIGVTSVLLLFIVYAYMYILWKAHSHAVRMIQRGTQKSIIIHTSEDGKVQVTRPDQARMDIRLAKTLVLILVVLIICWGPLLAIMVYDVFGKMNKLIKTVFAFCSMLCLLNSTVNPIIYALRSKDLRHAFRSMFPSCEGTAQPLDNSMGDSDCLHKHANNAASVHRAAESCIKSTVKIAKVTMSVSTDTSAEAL
protocol: CB-1 in vitro cAMP (HTRF) assay
Assay type: cell-based
condition-context: HEK cells, cAMP HTRF, 250 nM forskolin; mean where tested more than once; read-out: CB1 HEK_cAMP EC50
reported-metric: EC50 (nM)

O=C(O)c1ccnc(CN2CCC(n3c(C4CC4)nc4ccc(C(c5ccc(Cl)cc5)c5ccc(Cl)cc5)cc43)CC2)c1 = 33
O=C(NCCO)c1cccc(CN2CCC(n3c(C4CC4)nc4ccc(C(c5ccc(Cl)cc5)c5ccc(Cl)cc5)cc43)CC2)c1 = 8.3

1 = O=S(=O)(N1CCC(n2c(CO)nc3ccc(C(O)(c4ccc(Cl)cc4)c4ccc(Cl)cc4)cc32)CC1)C(F)(F)F
2 = CCOC(=O)N1CCC(n2c(CC(C)C)nc3ccc(C(c4ccc(Cl)cc4)c4nccs4)cc32)CC1 (stereo not shown)
3 = O=S(=O)(c1ccccc1)N1CCC(n2c(C3CC3)nc3ccc(C(c4ccc(Cl)cc4)c4ccc(Cl)cc4)cc32)CC1
4 = NC(=O)c1ccc(Cn2c(C3CC3)nc3ccc(C(c4ccc(Cl)cc4)c4ccc(Cl)cc4)cc32)cc1
QUERY: Put the items in order so that reported EC50 rises from first to last. Respond with an ordered listing of the labels, as requested.
RESULT: 3, 2, 4, 1

* * *

target-system: Human CB2R (Cannabinoid receptor 2) (Homo sapiens)
protocol: CB-2 in vitro cAMP (HTRF) assay
condition-context: HEK cells, cAMP HTRF, 250 nM forskolin; mean where tested more than once; read-out: CB2 HEK_cAMP EC50
From the text: CB1 and CB2 receptors are Gi-coupled GPCR. Activation of CB1 and CB2 receptors results in a decrease in cAMP production. An inverse agonist of the CB1 or CB2 receptor results in the opposite effect, an increase of cAMP production. The principle of this assay is based on HTRF® technology (Homogeneous Time-Resolved Fluorescence). […] The tracer binding is quantified by a Mab anti-cAMP labeled with Eu3+TBP-NHS Cryptate (supplied as part of the assay kit). […]
reported-metric: EC50

// worked examples, EC50 included
O=S(=O)(c1cccc(C(F)(F)F)c1)N1CCC(n2c(C3CC3)nc3ccc(C(c4ccc(Cl)cc4)c4ccc(Cl)cc4)cc32)CC1 = > 10 µM
O=S(=O)(N1CCC(n2c(-c3ccccn3)nc3ccc(C(c4ccc(Cl)cc4)c4nccs4)cc32)CC1)C(F)(F)F (stereo not drawn) = > 10 µM

Now take the following molecule into account.
QUERY: Looking for the measured EC50 of O=C(O)c1ccc(CN2CCC(n3c(C4CC4)nc4ccc(C(c5ccc(Cl)cc5)c5ccc(Cl)cc5)cc43)CC2)cn1 , can you help?
RESULT: > 10 µM

* * *

target-system: Human CB2R (Cannabinoid receptor 2) (Homo sapiens, UniProt P34972)
Sequence (P34972 whole entry): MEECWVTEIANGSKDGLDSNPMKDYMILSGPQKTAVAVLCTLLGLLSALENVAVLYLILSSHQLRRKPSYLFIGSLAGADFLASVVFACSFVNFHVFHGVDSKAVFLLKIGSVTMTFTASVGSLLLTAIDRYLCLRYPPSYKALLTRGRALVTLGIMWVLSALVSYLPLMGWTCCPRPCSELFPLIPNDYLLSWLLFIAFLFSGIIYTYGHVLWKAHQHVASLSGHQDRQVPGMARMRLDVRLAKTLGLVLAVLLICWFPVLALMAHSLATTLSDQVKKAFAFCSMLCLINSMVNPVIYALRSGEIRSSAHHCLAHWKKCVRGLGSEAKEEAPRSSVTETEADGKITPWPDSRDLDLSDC
protocol: CB-2 in vitro cAMP (HTRF) assay
condition-context: HEK cells, cAMP HTRF, 250 nM forskolin; mean where tested more than once; read-out: CB2 HEK_cAMP EC50
Source text: CB1 and CB2 receptors are Gi-coupled GPCR. Activation of CB1 and CB2 receptors results in a decrease in cAMP production. An inverse agonist of the CB1 or CB2 receptor results in the opposite effect, an increase of cAMP production. The principle of this assay is based on HTRF® technology (Homogeneous Time-Resolved Fluorescence). […] The tracer binding is quantified by a Mab anti-cAMP labeled with Eu3+TBP-NHS Cryptate (supplied as part of the assay kit). […]
# reported EC50; entries follow
// return numeric value only (unit: µM, not printed)

// worked examples, EC50 included
O=C(O)c1cccc(CN2CCC(n3c(C4CC4)nc4ccc(C(c5ccc(Cl)cc5)c5ccc(C(F)(F)F)cc5)cc43)CC2)c1 (stereo not shown) [Example 99] = 4.74
NC(=O)c1cccc(CN2CCC(n3c(C4CC4)nc4ccc(C(c5ccc(Cl)cc5)c5ccc(Cl)cc5)cc43)CC2)n1 [Example 104] = 6
O=C(NCc1ccccc1)N1CCC(n2c(C3CC3)nc3ccc(C(c4ccc(Cl)cc4)c4ccc(Cl)cc4)cc32)CC1 [Example 75] = 1.15

QUERY: Looking for the measured EC50 of O=C(O)c1ccc(F)c(CN2CCC(n3c(C4CC4)nc4ccc(C(c5ccc(Cl)cc5)c5ccc(Cl)cc5)cc43)CC2)c1 [Example 92] , can you help?
RESULT: 5.19
